Reported EC50 values for a set of compounds
test-system: UniProt:P31391
Sequence (P31391 whole entry): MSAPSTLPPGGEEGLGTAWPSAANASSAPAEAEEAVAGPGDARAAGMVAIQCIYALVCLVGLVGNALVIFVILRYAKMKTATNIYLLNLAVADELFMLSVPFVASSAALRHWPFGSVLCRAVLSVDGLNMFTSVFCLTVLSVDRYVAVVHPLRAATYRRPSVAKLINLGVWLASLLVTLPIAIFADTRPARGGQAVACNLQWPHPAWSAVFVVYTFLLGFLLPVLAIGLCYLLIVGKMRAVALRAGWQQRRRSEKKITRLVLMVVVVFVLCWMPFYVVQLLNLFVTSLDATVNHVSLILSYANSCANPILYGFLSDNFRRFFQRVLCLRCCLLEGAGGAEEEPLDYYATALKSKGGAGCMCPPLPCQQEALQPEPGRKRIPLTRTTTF
assay-name: cAMP assay with human somatostatin 4 receptor (hSSTR4 expressing H4 cells)
run-parameters: read-out: SSTR4 agonism EC50
# output: number + unit

compound: Cn1nc(C(C)(C)NC(=O)C2CNCCCO2)c2ccccc21 (single isomer, unassigned) [Example 25]
result-value: 1000 nM

compound: CC(C)(NC(=O)C1CNCCOC1)c1n[nH]c2c(Cl)cccc12 (single isomer, unassigned) [Example 94]
result-value: 31 nM

Kindly consider the entry below.
Short answer please: EC50, UniProt:P31391, entry Cc1cccc2c(C(C)(C)NC(=O)[C@@H]3CNCCO3)nn(C)c12 4.1 nM
